Readings of GI50 for the listed compounds
Test system: HCT-15 colon
Test: NCI tumour cell line growth inhibition, 48 h

Task: Specify reported GI50 for the compound shown: Cc1ccccc1[C@H]1C(C(=O)c2ccc(Cl)cc2)C2(N[C@@H]1c1ccccc1)C(=O)Nc1ccccc12 (some centres undefined)
Output: 5.11 µM

More entries:
Task: Specify reported GI50 for the compound shown: Cc1nc(Nc2nc(C)c3ccc(OCCN4CCOCC4)cc3n2)[nH]c(=O)c1C
Output: 3.15 µM

Task: Specify reported GI50 for the compound shown: CC1=C2C(=C[C@@](C)(COCOCCCl)[C@@H]2O)C(=O)[C@](C)(O)C12CC2
Output: 0.0644 µM

Task: Specify reported GI50 for the compound shown: C=C1CC[C@@H]2[C@]3(C)COC(c4cn[nH]c4-c4ccc(C)cc4)O[C@@H]3CC[C@@]2(C)[C@@H]1C/C=C1/C(=O)OCC1O (some centres undefined)
Output: 10.1 µM
